system: MiaPaca2 (Pancreatic cancer); test: Toxicity assay with or without rotenone; type: cell-based; details: Homo sapiens, MIA PaCa-2; MiaPaca2, without rotenone, 72 hours; read-out: EC50
quantity-kind: pEC50
Give bare numbers, as −log10 of the molar value.

Hey, MiaPaca2 (Pancreatic cancer) data for "CC(=O)Nc1ccc(CCNc2ncnc3c2sc2nc4c(cc23)COC(C)(C)C4)cc1" : pEC50 came out at 4.43

###

target: GLUT1 transporter (DLD1 cells) (Homo sapiens, UniProt P11166); construct: DLD1 cells for GLUT1 transporter; endogenous in cells; host or cells: DLD1 (DLD1-WT); experiment: Glucose transporter selectivity assay; assay type: cell-based; settings: 5 mM glucose, 1 uM Rotenone, 15 min, read-out: IC50 (nM) DLD1-WT Glust1
Sequence (P11166 whole entry): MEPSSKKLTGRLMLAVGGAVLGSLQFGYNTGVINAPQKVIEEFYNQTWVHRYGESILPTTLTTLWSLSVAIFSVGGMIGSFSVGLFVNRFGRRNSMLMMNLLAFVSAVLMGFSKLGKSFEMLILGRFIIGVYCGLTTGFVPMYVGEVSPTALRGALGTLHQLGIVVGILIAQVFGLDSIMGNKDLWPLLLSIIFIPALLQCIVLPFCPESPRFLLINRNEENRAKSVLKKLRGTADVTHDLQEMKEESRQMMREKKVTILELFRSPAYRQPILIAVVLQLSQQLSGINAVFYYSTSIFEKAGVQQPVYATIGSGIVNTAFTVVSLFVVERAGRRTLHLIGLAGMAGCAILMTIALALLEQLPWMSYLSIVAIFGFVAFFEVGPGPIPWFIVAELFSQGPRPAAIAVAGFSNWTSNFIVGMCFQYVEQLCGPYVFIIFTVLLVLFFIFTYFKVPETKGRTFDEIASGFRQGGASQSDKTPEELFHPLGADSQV
quantity-kind: IC50

Field IC50 (entry CC1(C)Cc2nc3sc4c(NCCc5ccc6[nH]cnc6c5)ncnc4c3cc2CO1 [Compound 145] ) reads 19 nM

Sourced from patent US20230084927A1
